Target: Cytochrome P450 3A4 (Homo sapiens)
Test: Cytochrome panel assay with activity outcomes
Settings: recombinant CYP, pro-luciferin dealkylation, luminescence, p450-cyp3a4; series mostly up to 57.1 µM
Out of some 16,000 compounds screened, about 5,100 (32%) were called active. Roughly 25% stayed inconclusive and do not appear here. The call rests on the fitted dose curve; in most records, active means well fitted curve in the direction sought with a large enough effect; inconclusive means small, poorly fitted or top-dose-only effect, or effect the other way; inactive means no such curve, though single readings can be large or run the other way. This is one part of the list.
Classes used: Yes (active), No (inactive)

>  <compound>
COc1ccc(-c2noc(N(C)CC(=O)Nc3cccc(C(F)(F)F)c3)n2)cc1

>  <discrete_label>
Yes

$$$$
>  <compound>
C=CCn1c(SCc2ccccc2)nc2scc(-c3ccc(C)o3)c2c1=O

>  <discrete_label>
No

$$$$
>  <compound>
COc1ccc2[nH]cc(CCNc3cc(-c4cccnc4)ncn3)c2c1

>  <discrete_label>
Yes

$$$$
>  <compound>
Cc1cc(NC(=O)c2cc(C(C)C)on2)no1

>  <discrete_label>
No

$$$$
>  <compound>
CC1=NC(C)(C)Cc2ccccc21

>  <discrete_label>
No

$$$$
>  <compound>
CC1(C)Cc2ccccc2C(NNC(=O)c2ccncc2)=N1

>  <discrete_label>
Yes

$$$$
>  <compound>
CCOC(=O)C(NC(=O)CC)(Nc1sc2c(c1C(=O)OC)CCN(C)C2)C(F)(F)F (centres undefined)

>  <discrete_label>
Yes

$$$$
>  <compound>
Cc1ccc(COc2ccc(Br)cc2/C=N/O)cc1

>  <discrete_label>
Yes

$$$$
>  <compound>
CCOC(=O)c1cccc(C(=O)OCC)n1

>  <discrete_label>
No

$$$$
>  <compound>
O=[N+]([O-])c1ccccc1N/N=C/c1c[nH]c2ccccc12

>  <discrete_label>
Yes

$$$$
>  <compound>
COc1ccc(CCNc2nc(-c3cccnc3)cs2)cc1OC

>  <discrete_label>
Yes

$$$$
>  <compound>
CCOc1ccc(-c2nnn(CC(=O)Nc3cc(OC)ccc3OC)n2)cc1OCC

>  <discrete_label>
Yes

$$$$
>  <compound>
COc1ccc2[nH]cc(CCNc3ccnc(-c4cccnc4)n3)c2c1

>  <discrete_label>
Yes

$$$$
>  <compound>
C=CCn1c(SCC(=O)N2CC(=O)Nc3ccccc32)nc2scc(-c3ccccc3)c2c1=O

>  <discrete_label>
Yes

$$$$
>  <compound>
CN(C)/N=N\c1nc[nH]c1C(N)=O

>  <discrete_label>
No

$$$$
>  <compound>
Cc1ccc(S(=O)(=O)N[C@H]2COC(=O)C/C=C\[C@H](C)[C@@H](NS(=O)(=O)c3ccc(C)cc3)COC(=O)C/C=C\[C@@H]2C)cc1

>  <discrete_label>
Yes

$$$$
>  <compound>
COc1cc2c(cc1C(F)(F)F)N(C(=O)Nc1cc(F)cc(-c3cccnc3)c1)CC2

>  <discrete_label>
Yes

$$$$
>  <compound>
COc1ccc([C@@H]2CC(=O)c3c(O)cc(O[C@H]4O[C@@H](CO[C@H]5O[C@@H](C)[C@@H](O)[C@@H](O)[C@@H]5O)[C@@H](O)[C@@H](O)[C@@H]4O)cc3O2)cc1O

>  <discrete_label>
No

$$$$
>  <compound>
COc1ccccc1CNc1cc(-c2cccnc2)ncn1

>  <discrete_label>
Yes

$$$$
>  <compound>
COc1ccccc1-c1cncnc1-n1ccnc1

>  <discrete_label>
Yes

$$$$
>  <compound>
COc1cc(/C=C\c2ccc(OC)cc2OC)cc(OC)c1

>  <discrete_label>
Yes

$$$$
>  <compound>
CC(=O)CCCCn1c(=O)c2c(ncn2C)n(C)c1=O

>  <discrete_label>
No

$$$$
>  <compound>
CCCCN(CC)Cc1ccc(CNC(=O)Nc2ccc(OC)cc2OC)o1

>  <discrete_label>
Yes

$$$$
>  <compound>
c1ncc(-c2ccoc2)c(NC2CC2)n1

>  <discrete_label>
Yes

$$$$
>  <compound>
COc1cccc(NC(=O)COC(=O)c2c3c(nc4ccccc24)CCC(C)C3)c1 (centres undefined)

>  <discrete_label>
Yes

$$$$
>  <compound>
Cc1cc(C)cc(NC(=O)N2CCCC2C(=O)Nc2ccc(-n3cnnn3)c(C)c2)c1 (centres undefined)

>  <discrete_label>
Yes

$$$$
>  <compound>
CNC(C)c1cc(OC)ccc1OC (centres undefined)

>  <discrete_label>
No

$$$$
>  <compound>
CN(C)C[C@H]1CCC2=C(C1=O)C(c1ccc(Cl)c(Cl)c1)C1=C(CC[C@H](CN(C)C)C1=O)O2

>  <discrete_label>
Yes

$$$$
>  <compound>
Nc1nc2ncc(CNc3ccc(C(=O)N[C@@H](CCC(=O)O)C(=O)O)cc3)nc2c(=O)[nH]1

>  <discrete_label>
No

$$$$
>  <compound>
CC(=O)ON(C(C)=O)S(=O)(=O)c1ccc(Cl)cc1

>  <discrete_label>
No

$$$$
>  <compound>
O=C(Cc1ccccc1)N/N=C/c1ccccc1OCc1ccc(Cl)cc1

>  <discrete_label>
Yes

$$$$
>  <compound>
O=C(NN=C1c2ccccc2-c2ccccc21)c1ccccn1

>  <discrete_label>
Yes

$$$$
>  <compound>
O=C(CSc1nnc(COc2ccccc2)n1-c1ccccc1)c1ccccc1

>  <discrete_label>
Yes

$$$$
>  <compound>
CC(C)(C)c1ccc(OC(=O)Cn2c(C(F)(F)F)nc3ccccc32)cc1

>  <discrete_label>
No

$$$$
>  <compound>
COc1ccc(-c2nnn(CC(=O)N(CC(=O)NCCC(C)C)Cc3cccs3)n2)cc1OC

>  <discrete_label>
Yes

$$$$
>  <compound>
C=CCn1c(SCc2ccc3c(c2)OCO3)nc2scc(-c3ccco3)c2c1=O

>  <discrete_label>
Yes

$$$$
>  <compound>
CN(C)/C(CN1CCN(C=O)CC1)=C1\N=C(c2ccccc2)OC1=O

>  <discrete_label>
No

$$$$
>  <compound>
COC(=O)Nc1nc2ccc(Sc3ccccc3)cc2[nH]1

>  <discrete_label>
No

$$$$
>  <compound>
COc1ccc2[nH]cc(C=O)c2c1

>  <discrete_label>
No

$$$$
>  <compound>
COc1ccc(/C=N/n2c(C)nnc2C)c(OC)c1

>  <discrete_label>
No

$$$$
>  <compound>
COc1ccc(CNc2cc(-c3cccnc3)ncn2)c(OC)c1

>  <discrete_label>
Yes

$$$$
>  <compound>
CN1CCc2c(cc(O)c(O)c2Cl)[C@H](c2cccc(Cl)c2)C1

>  <discrete_label>
No

$$$$
>  <compound>
CN1CCC2(CC1)CCN(C(=O)c1ccncc1)CC2

>  <discrete_label>
No

$$$$
>  <compound>
COC(=O)C1=C(N)Oc2cc(C)n(CC3CCCO3)c(=O)c2C1c1ccccc1OC (centres undefined)

>  <discrete_label>
Yes

$$$$

* * *

Molecular target: Cytochrome P450 3A4 (Homo sapiens) (UniProt P08684)
Sequence (P08684 whole entry, looked up): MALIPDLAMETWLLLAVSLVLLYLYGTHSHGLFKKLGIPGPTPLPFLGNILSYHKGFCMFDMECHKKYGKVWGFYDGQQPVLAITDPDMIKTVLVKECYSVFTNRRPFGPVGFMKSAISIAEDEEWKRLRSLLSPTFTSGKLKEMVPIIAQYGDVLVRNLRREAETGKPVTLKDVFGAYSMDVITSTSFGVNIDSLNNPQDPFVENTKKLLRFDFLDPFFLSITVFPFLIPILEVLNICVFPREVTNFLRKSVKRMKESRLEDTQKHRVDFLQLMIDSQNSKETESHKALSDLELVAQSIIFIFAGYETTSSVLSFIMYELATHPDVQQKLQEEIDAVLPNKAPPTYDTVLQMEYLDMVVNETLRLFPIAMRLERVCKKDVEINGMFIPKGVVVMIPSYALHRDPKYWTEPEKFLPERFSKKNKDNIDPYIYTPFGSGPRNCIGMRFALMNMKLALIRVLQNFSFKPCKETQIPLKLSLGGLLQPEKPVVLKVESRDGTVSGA
Experiment: Cytochrome panel assay with activity outcomes
Settings: recombinant CYP, pro-luciferin dealkylation, luminescence, p450-cyp3a4; series mostly up to 57.1 µM
Out of some 16,000 compounds screened, about 5,100 (32%) were called active. Not shown: some 25% with an inconclusive outcome. Calls come from the whole dose curve; as a rule, active = well fitted curve in the direction sought with a large enough effect; inconclusive = small, poorly fitted or top-dose-only effect, or effect the other way; inactive = no such curve, though single readings can be large or run the other way. The list shows a part of the results.
Classes used: 1 = active, -1 = inactive

>  <compound>
Cc1noc(C)c1C(=O)N1CCC2(CCCN(C(c3ccccc3)c3ccccc3)C2)CC1

>  <system>
Cytochrome P450 3A4 (Homo sapiens) (UniProt P08684)

>  <discrete_label>
-1

$$$$
>  <compound>
Cc1cccc(CNc2ccnc(-c3ccccc3Cl)n2)c1

>  <system>
Cytochrome P450 3A4 (Homo sapiens) (UniProt P08684)

>  <discrete_label>
1

$$$$
>  <compound>
O=C(O)c1nn(-c2ccccc2)nc1-c1nn(-c2ccccc2)nc1C(=O)O

>  <system>
Cytochrome P450 3A4 (Homo sapiens) (UniProt P08684)

>  <discrete_label>
-1

$$$$
>  <compound>
Nc1ccc(CCNc2ncnc3c2ncn3[C@@H]2O[C@@H](CO)[C@H](O)[C@@H]2O)cc1

>  <system>
Cytochrome P450 3A4 (Homo sapiens) (UniProt P08684)

>  <discrete_label>
1

$$$$
>  <compound>
COc1ccccc1-c1nccc(NCc2cccnc2)n1

>  <system>
Cytochrome P450 3A4 (Homo sapiens) (UniProt P08684)

>  <discrete_label>
1

$$$$
>  <compound>
FC(F)(F)c1cnc(N2CCC(=NOCc3ccc(Cl)cc3)CC2)c(Cl)c1

>  <system>
Cytochrome P450 3A4 (Homo sapiens) (UniProt P08684)

>  <discrete_label>
-1

$$$$
>  <compound>
O=S(=O)(c1ccccc1)N1N=C(c2cccs2)CC1c1ccc(Br)cc1 (stereo unspecified)

>  <system>
Cytochrome P450 3A4 (Homo sapiens) (UniProt P08684)

>  <discrete_label>
1

$$$$
>  <compound>
CCOC(=O)CSc1cc(C(F)(F)F)nc(-c2ccccn2)n1

>  <system>
Cytochrome P450 3A4 (Homo sapiens) (UniProt P08684)

>  <discrete_label>
-1

$$$$
>  <compound>
COc1cccc(-c2nc(NCc3ccccc3)c3ccccc3n2)c1

>  <system>
Cytochrome P450 3A4 (Homo sapiens) (UniProt P08684)

>  <discrete_label>
1

$$$$
>  <compound>
O=c1oc(-c2cccs2)nc2ccc(Br)cc12

>  <system>
Cytochrome P450 3A4 (Homo sapiens) (UniProt P08684)

>  <discrete_label>
-1

$$$$
>  <compound>
Fc1nc(N2CCCC2)c(F)c(Oc2ccccc2Oc2c(F)c(F)nc(N3CCCC3)c2F)c1F

>  <system>
Cytochrome P450 3A4 (Homo sapiens) (UniProt P08684)

>  <discrete_label>
-1

$$$$

Ref: PubChem BioAssay AID1851
